# study_system: p38 MAPKα isoform (MAPK14) (Homo sapiens, UniProt Q16539)
# Construct: purchased Life Technologies
# Sequence (Q16539 whole entry, canonical isoform): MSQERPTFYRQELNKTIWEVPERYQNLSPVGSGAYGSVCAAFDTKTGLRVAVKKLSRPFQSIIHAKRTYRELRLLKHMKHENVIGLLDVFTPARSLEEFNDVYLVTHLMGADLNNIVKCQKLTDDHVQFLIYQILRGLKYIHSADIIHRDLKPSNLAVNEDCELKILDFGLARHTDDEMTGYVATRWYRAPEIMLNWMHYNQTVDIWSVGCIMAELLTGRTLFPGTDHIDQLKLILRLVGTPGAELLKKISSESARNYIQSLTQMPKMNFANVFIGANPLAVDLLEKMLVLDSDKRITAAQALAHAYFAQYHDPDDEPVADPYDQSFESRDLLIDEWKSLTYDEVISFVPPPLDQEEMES
# assay: p38 MAPKα enzyme inhibition (Z-LYTE FRET)
# Assay type: biochemical
# setup_conditions: Table 2B, unit inferred; read-out: p38 MAPKα (Enzyme Profile)
Checkbox rule: IC50 lower than 40 nM = fulfilled; IC50 not lower than 40 nM = not fulfilled.

Would you please look over these solved cases?
structure_as_smiles | category_label
CCc1cncc(Nc2cc(COc3ccc(NC(=O)Nc4cc(C(C)(C)C)nn4-c4ccc(OC)c(F)c4)c4ccccc34)ccn2)n1 | fulfilled
Cc1ccc(-n2nc(C(C)(C)C)cc2NC(=O)Nc2ccc(OCc3ccnc(Nc4cnccn4)c3)c3ccccc23)cc1F | fulfilled
Cc1ccc(-n2nc(C(C)(C)C)cc2NC(=O)Nc2ccc(OCc3ccnc(Nc4cnc(C)c(C)n4)c3)c3ccccc23)cc1F | not fulfilled
COc1ccc(-n2nc(C(C)(C)C)cc2NC(=O)Nc2ccc(OCc3ccnc(Nc4cnc(CO)cn4)c3)c3ccccc23)cn1 | fulfilled
COc1ccc(-n2nc(C(C)(C)C)cc2NC(=O)Nc2ccc(OCc3ccnc(Nc4cnc(C)c(C)n4)c3)c3ccccc23)cn1 | fulfilled

[Q] In plain terms, does Cc1ccc(-n2nc(C(C)(C)C)cc2NC(=O)Nc2ccc(OCc3ccnc(Nc4cnc(C)c(C)n4)c3)c3ccccc23)cc1C come in under 40 nM for IC50?
[A] not fulfilled

[Q] Further, for COc1ccc(-n2nc(C(C)(C)C)cc2NC(=O)Nc2ccc(OCc3ccnc(Nc4cnccn4)c3)c3ccccc23)cc1F ?
[A] fulfilled

[Q] Cc1ccc(-n2nc(C(C)(C)C)cc2NC(=O)Nc2ccc(OCc3ccnc(Nc4cncc(N5CC(O)C5)n4)c3)c3ccccc23)cc1 , same question.
[A] not fulfilled

[Q] Item: CCc1cncc(Nc2cc(COc3ccc(NC(=O)Nc4cc(C(C)(C)C)nn4-c4ccc(F)cc4)c4ccccc34)ccn2)n1
[A] fulfilled

[Q] Cc1ccc(-n2nc(C(C)(C)C)cc2NC(=O)Nc2ccc(OCc3ccnc(Nc4cnc5c(n4)CCC5)c3)c3ccccc23)cc1 ?
[A] fulfilled

---

# IC50 annotations
# study_system: p38 MAPKα isoform (MAPK14) (Homo sapiens, UniProt Q16539)
# Construct: purchased Life Technologies
# assay: p38 MAPKα enzyme inhibition (Z-LYTE FRET)
# Type: biochemical
# setup_conditions: Table 2B, unit inferred; read-out: p38 MAPKα (Enzyme Profile)
# number only, unit nM dropped from output

Some solved entries appear below for comparison.
structure_as_smiles | IC50 / nM
Cc1cc(F)cc(-n2nc(C(C)(C)C)cc2NC(=O)Nc2ccc(OCc3ccnc(Nc4cnccn4)c3)c3ccccc23)c1 | 15
Cc1ccc(-n2nc(C(C)(C)C)cc2NC(=O)Nc2ccc(OCc3ccnc(Nc4cncc(CCO)n4)c3)c3ccccc23)cc1 | 12
Cc1ccc(-n2nc(C(C)(C)C)cc2NC(=O)Nc2ccc(OCc3ccnc(Nc4cnc(C(=O)N5CCC(F)(F)CC5)cn4)c3)c3ccccc23)cc1 | 58
Cc1cc(-n2nc(C(C)(C)C)cc2NC(=O)Nc2ccc(OCc3ccnc(Nc4cncc(N(C)C)n4)c3)c3ccccc23)cs1 | 43
Cc1cccc(-n2nc(C(C)(C)C)cc2NC(=O)Nc2ccc(OCc3ccnc(Nc4cncc(C5CC5)n4)c3)c3ccccc23)c1 | 34
COc1cncc(Nc2cc(COc3ccc(NC(=O)Nc4cc(C(C)(C)C)nn4-c4csc(C)c4)c4ccccc34)ccn2)n1 | 37
COCCN(C)C(=O)c1cnc(Nc2cc(COc3ccc(NC(=O)Nc4cc(C(C)(C)C)nn4-c4ccc(C)cc4)c4ccccc34)ccn2)cn1 | 14
CC(C)(C)c1cc(NC(=O)Nc2ccc(OCc3ccnc(Nc4cnccn4)c3)c3ccccc23)n(-c2ccccc2)n1 | 17

[Q] Which IC50 value belongs to CCCNC(=O)c1cnc(Nc2cc(COc3ccc(NC(=O)Nc4cc(C(C)(C)C)nn4-c4ccc(C)cc4)c4ccccc34)ccn2)cn1 ?
[A] 46

[Q] // same read-out, input: Cc1ccc(-n2nc(C(C)(C)C)cc2NC(=O)Nc2ccc(OCc3ccnc(Nc4cnc(C(=O)N5CCC[C@H](O)C5)cn4)c3)c3ccccc23)cc1
[A] 18

[Q] Cool, now COCCc1cccc(-n2nc(C(C)(C)C)cc2NC(=O)Nc2ccc(OCc3ccnc(Nc4cnccn4)c3)c3ccccc23)c1
[A] 12

[Q] Now this one: Cc1ccc(-n2nc(C(C)(C)C)cc2NC(=O)Nc2ccc(OCc3ccnc(Nc4cnc(C(=O)N5C[C@@H](C)O[C@@H](C)C5)cn4)c3)c3ccccc23)cc1
[A] 31
